This collection of values is drawn from PubChem BioAssay AID248.

Tested on: L1210 leukemia ip in BDF1 mice, survival T/C
Assay: NCI In Vivo Anticancer Drug Screen. Data for tumor model L1210 Leukemia (intraperitoneal) in B6D2F1 (BDF1) mice
Conditions: endpoint: mean survival time; dose: 50.0 mg/kg/injection; schedule: Q01DX009 (ip); vehicle: Klucel (hydroxypropylcellulose) (HPC); higher = longer survival
Inconclusive results and toxic doses are left out.
readout type: T/C

Could you share which T/C value was measured for `O=C1c2ccccc2C(=O)c2c1ccc1c2CCCC1` ?
91 % of control

Also `O=[N+]([O-])c1ccc(N2CCC(CCCC3CCN(c4ccc([N+](=O)[O-])cc4[N+](=O)[O-])CC3)CC2)c([N+](=O)[O-])c1` , if possible.
93 % of control

Also `Cc1nc2ccccc2n(O)c1=O` , if possible.
97 % of control

Also `CN(C)c1ccc(/C=N\N=C/c2ccc(N(C)C)cc2)cc1` , if possible.
97 % of control

Also `CCOC(=O)c1[nH]c(C)c(C(=O)OCC)c1C` , if possible.
95 % of control

Also `O=C(O)c1ccc(N=Nc2nc3[nH]c(=O)[nH]c(=O)c3[nH]2)cc1` , if possible.
97 % of control

Also OCC1(c2ccccc2)OC1c1ccccc1 (stereo not drawn) , if possible.
95 % of control

Also `COc1ccc(NC(=O)Oc2ccccc2C(N)=O)c(OC)c1` , if possible.
102 % of control

Also `CCCCCC(=O)N1CCCCC1` , if possible.
96 % of control

Also `N#CCC(=O)c1ccccc1` , if possible.
104 % of control

Also `CCN(CC)c1ccc(/C=N\N(C)C)cc1` , if possible.
97 % of control

Also CO[C@H]1/C=C/O[C@@]2(C)Oc3c(C)c(O)c4c(O)c(c(/C=N/N5C(C)CN(Cc6ccccc6)CC5C)c(O)c4c3C2=O)NC(=O)/C(C)=C\C=C\[C@H](C)[C@H](O)[C@@H](C)[C@@H](O)[C@@H](C)[C@H](OC(C)=O)[C@@H]1C (stereo partly drawn) , if possible.
97 % of control

Also `COc1ccc(Cl)cc1NC(=O)c1ccc(C(=O)Nc2cc(Cl)ccc2OC)cc1` , if possible.
109 % of control

Also `N#CCc1nc2ccccc2[nH]1` , if possible.
97 % of control

Also `O=C1/C(=C\c2ccccc2)C2CCC(C2)/C1=C\c1ccccc1` , if possible.
99 % of control

Also `COc1cc(Br)c(CCBr)cc1OC` , if possible.
94 % of control

Also `CCOC(=O)c1c[nH]c2nc(SC)[nH]c(=O)c2c1=O` , if possible.
93 % of control

Also `N#Cc1c(N)nc2ccccc2[n+]1[O-]` , if possible.
94 % of control

Also `CCN(CC)CCN(CC)C(=S)Nc1ccccc1` , if possible.
102 % of control

Also `NNC(=O)c1cccs1` , if possible.
103 % of control

Also CCCCCCCCN1CCC(c2cccc(O)c2)C(C(=O)CC)C1 (stereo not drawn) , if possible.
87 % of control

Also Cc1ccc(N2CCN(CC(O)c3ccccc3)CC2)cc1 (stereo not drawn) , if possible.
95 % of control

Also `[Se]=P(N1CCCCC1)(N1CCCCC1)N1CCCCC1` , if possible.
104 % of control

====

System: L1210 leukemia ip in BDF1 mice, survival T/C
Assay: NCI In Vivo Anticancer Drug Screen. Data for tumor model L1210 Leukemia (intraperitoneal) in B6D2F1 (BDF1) mice
Details: endpoint: mean survival time; dose: 50.0 mg/kg/injection; schedule: Q01DX001 (ip); vehicle: saline with Tween-80; higher = longer survival
Toxic doses and inconclusive results are not listed.
readout type: T/C

# value lookup — system L1210 leukemia ip in BDF1 mice, survival T/C, readout T/C, item `CN(C)c1ccc(/C=N/NC(=O)c2ccc(O)cc2)c(Cl)c1`
86 % of control

Also CCCN(C(=O)c1cccc([N+](=O)[O-])c1)C(c1ccco1)P(=O)(c1ccccc1)c1ccccc1 (centres undefined) , if possible.
101 % of control

Also CCC1CCC(NC(C)=O)CC1 (centres undefined) , if possible.
108 % of control

Also CCC(C(=O)Cl)c1ccc(-c2ccccc2)cc1 (centres undefined) , if possible.
96 % of control

====

Test system: L1210 leukemia ip in BDF1 mice, survival T/C
Experiment: NCI In Vivo Anticancer Drug Screen. Data for tumor model L1210 Leukemia (intraperitoneal) in B6D2F1 (BDF1) mice
Details: endpoint: mean survival time; dose: 400.0 mg/kg/injection; schedule: Q01DX009 (ip); vehicle: Klucel (hydroxypropylcellulose) (HPC); higher = longer survival
Inconclusive results and toxic doses are left out.
For each of the compounds below, state its T/C.

# value lookup — system L1210 leukemia ip in BDF1 mice, survival T/C, readout T/C, item CCCCCCCCCCCCCCCCCCNC(=O)N1CCCCC1C (configuration not stated)
100 % of control

Also CC1(C(=O)c2ccccc2)OC1c1ccccc1 (configuration not stated) , if possible.
103 % of control

Also `Cc1ccc2c(c1)Nc1ccccc1C(=O)N2` , if possible.
91 % of control

Also CCCCCCCC(N)CC(=O)O (configuration not stated) , if possible.
107 % of control

Also `Clc1ccc(S/C=C/c2ccccc2)cc1` , if possible.
91 % of control

Also `COc1cc(/C=C/C(N)=O)cc(OC)c1OC` , if possible.
102 % of control

Also `O=C1NC(=O)/C(=C/c2ccccc2)N1` , if possible.
102 % of control

Also `CCOC(=O)NNC(N)=S` , if possible.
98 % of control

Also CCOC(=O)C1C(O)=C(P(=O)(C2=C(O)C(C(=O)OCC)C(c3ccc(OC(C)=O)cc3)C(C(=O)O)C2=O)N(CCCl)CCCl)C(=O)C(C(=O)O)C1c1ccc(OC(C)=O)cc1 (configuration not stated) , if possible.
102 % of control

Also `Cc1ccc(Cl)c(NC(=O)Nc2cccc(F)c2)c1` , if possible.
89 % of control

Also `Cc1cc(C)n(/N=C/c2ccccc2[N+](=O)[O-])c(=O)c1C#N` , if possible.
92 % of control

Also `O=S(=O)(O)CCN1CCOCC1` , if possible.
100 % of control

====

System: L1210 leukemia ip in BDF1 mice, survival T/C
Test: NCI In Vivo Anticancer Drug Screen. Data for tumor model L1210 Leukemia (intraperitoneal) in B6D2F1 (BDF1) mice
Conditions: endpoint: mean survival time; dose: 100.0 mg/kg/injection; schedule: Q04DX003 (ip); vehicle: Klucel (hydroxypropylcellulose) (HPC); higher = longer survival
Protocol: The antitumor activity of compounds was measured in mice bearing transplantable tumors. Survival or tumor size were measured and the results are expressed as the measurement made in the treated group (T) divided by the measurement made in the vehicle treated control group (C). The tumor model used in this assay is L1210 Leukemia (intraperitoneal) in B6D2F1 (BDF1) mice
Inconclusive results and toxic doses are left out.
For each of the compounds below, state its T/C.

Could you share which T/C value was measured for CCCCOC(=O)C(C)OC(=O)CCC (stereo not given) ?
99 % of control

Also `CCOC(=O)c1c[nH]c2nc(SC)[nH]c(=O)c2c1=O` , if possible.
101 % of control

Also `ClCCCN(CCCCl)c1ccc(C=Nc2cccc(Cl)c2)c(Cl)c1` , if possible.
101 % of control

Also `O=C(NC(=S)Nc1ccc(F)cc1)c1cccc2ccccc12` , if possible.
104 % of control

Also `CC1(CCN2CCC3(CC2)C(=O)NCN3c2ccccc2)Oc2ccccc2O1` , if possible.
104 % of control

Also `CCCCCCCCCCCCCCOc1ccc(C(=S)N2CCOCC2)cc1OC` , if possible.
100 % of control

Also `c1ccc(COc2ccc(Nc3ccccc3)cc2)cc1` , if possible.
106 % of control

Also `Cc1cccc(CO)c1NC(=O)NCCCl` , if possible.
99 % of control

Also `COc1c(O)cc2oc3cc(O)c(CC=C(C)C)c(O)c3c(=O)c2c1CC=C(C)C` , if possible.
105 % of control

Also `CN(C)CC/C=C1\c2ccccc2CCSc2ccccc21` , if possible.
98 % of control

Also `Cc1cc(NC(=O)Nc2cc(F)ccc2F)no1` , if possible.
99 % of control

Also `Cc1ccccc1N=Cc1cc(Cl)ccc1O` , if possible.
88 % of control

Also `O=c1[nH]c2ccccc2nc1C(Cl)Cl` , if possible.
115 % of control

Also `O=[N+]([O-])c1ccc(N2CCC(CCCC3CCN(c4ccc([N+](=O)[O-])cc4[N+](=O)[O-])CC3)CC2)c([N+](=O)[O-])c1` , if possible.
98 % of control

Also `Cc1c(C)c2c(Cl)c3ccccc3nc2c2ccccc12` , if possible.
100 % of control
